Would you kindly list Selectivity ratio for each of these compounds?
- Species: Mus musculus
- Assay details: Selectivity ratio of Ki for GST-tagged mouse PKC-delta C1B domain N7R mutant to Kd for GST-tagged full-length mouse PKC-delta C1B domain
Numbers only.

INSERT INTO assay_data (compound, experimental_endpoint, endpoint_value) VALUES
  ('CC(C)C(CC(=O)OCC1(CO)C/C(=C\c2ccc(O)cc2)C(=O)O1)C(C)C (stereo unspecified)', 'Selectivity ratio', 0.67),
  ('CC(C)(C)C(=O)OCC1(CO)C/C(=C\c2ccc(C(=O)O)cc2)C(=O)O1 (stereo unspecified)', 'Selectivity ratio', 0.82),
  ('CC(C)CC(CC(=O)OCC1(CO)C/C(=C\c2ccc(C(C(=O)OC(C)(C)C)C(=O)OC(C)(C)C)cc2)C(=O)O1)CC(C)C (stereo unspecified)', 'Selectivity ratio', 1.17);

Answer for every listed entry: what is its Selectivity ratio? The entries follow.
1. CC(C)C(CC(=O)OCC1(CO)C/C(=C\c2cccc(O)c2)C(=O)O1)C(C)C (stereo unspecified)
2. CC(C)C(CC(=O)OCC1(CO)C/C(=C\c2cccc(C(=O)O)c2)C(=O)O1)C(C)C (stereo unspecified)
3. CC(C)CC(C/C=C1\CC(CO)(COC(=O)C(C)(CO)CO)OC1=O)CC(C)C (stereo unspecified)

1: 1.01; 2: 0.3; 3: 1.04

---

- Assay details: Displacement of [20-3H]PDBu from GST-tagged mouse PKC-delta C1B domain N7R/L20R mutant expressed in Escherichia coli after 2 to 30 mins by polyethylene glycol precipitation assay in presence of phosphatidylserine
Experimental endpoint: Ki (nM)
Answers are plain numbers, in nM.

Use these answered entries as a reference point.
INSERT INTO results (compound, experimental_endpoint, unit_annotation, endpoint_value) VALUES
  ('CC(C)C(CC(=O)OCC1(CO)C/C(=C/c2ccc(C(=O)O)cc2)C(=O)O1)C(C)C (stereo not drawn)', 'Ki', 'nM', 51900),
  ('CCCC(=O)O[C@@H]1[C@@H](C)[C@@]2(O)[C@@H](C=C(CO)C[C@]3(O)C(=O)C(C)=C[C@@H]23)[C@@H]2C(C)(C)[C@]12OC(=O)CCC', 'Ki', 'nM', 480);

Could you now consider this next compound?
Answer with the recorded Ki for the compound listed here: CC(C)C(CC(=O)OCC1(CO)C/C(=C\c2ccccc2O)C(=O)O1)C(C)C (stereo not drawn)
239

---

- Assay details: Displacement of [20-3H]PDBu from GST-tagged mouse PKC-delta C1B domain N7R/S10R/L20R mutant expressed in Escherichia coli after 2 to 30 mins by polyethylene glycol precipitation assay in presence of phosphatidylserine
Would you kindly list Ki for each of these compounds?
Numbers only, in nM.

Use these answered entries as a reference point.
INSERT INTO measurements (compound, experimental_endpoint, endpoint_value) VALUES
  ('CC(C)CC(C/C=C1\CC(CO)(COC(=O)C(C)(CO)CO)OC1=O)CC(C)C (stereo not drawn)', 'Ki', 7830),
  ('CC(C)C(CC(=O)OCC1(CO)C/C(=C\c2ccccc2O)C(=O)O1)C(C)C (stereo not drawn)', 'Ki', 661);

Answer with the recorded Ki for the compound listed here: CCCC(=O)O[C@@H]1[C@@H](C)[C@@]2(O)[C@@H](C=C(CO)C[C@]3(O)C(=O)C(C)=C[C@@H]23)[C@@H]2C(C)(C)[C@]12OC(=O)CCC
1360
